B1: AUP1 (parent)
chain: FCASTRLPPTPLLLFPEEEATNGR

# Variants of: B1
# assay-explanation: protein stability index of a GFP-peptide fusion (GPS, HEK-293T) (PSI 1-6); higher = more stable;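 note: lentivirally expressed fusions sorted by FACS into six bins by GFP to DsRed ratio, PSI derived from sequencing read proportions per bin multiplied by bin number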
# measurement-setup: c terminus: a fixed tail appended
Measured protein stability index values are reported for all entries that follow.
Kindly provide the number alone.

mutation-code: P9W
result-number: 2.97

mutation-code: S4L
result-number: 2.85

mutation-code: R24A
result-number: 3.27

mutation-code: T10R
result-number: 2.87

mutation-code: E18K
result-number: 2.32

mutation-code: P8W
result-number: 2.27

mutation-code: L7E
result-number: 3.24

mutation-code: L12Q
result-number: 3.7

mutation-code: P9K
result-number: 2.67

mutation-code: E19S
result-number: 2.31

Exercise: Query: protein stability index; subject: `A3N`
Solution: 2.62

Exercise: Could you share which protein stability index value was measured for `F15A` ?
Solution: 2.93

Exercise: Requested read-out: protein stability index. Entry: `R6S`
Solution: 3.29

Exercise: # query: protein stability index of entry `T10E`
Solution: 3.23

Exercise: Which measured protein stability index value corresponds to `P11M` ?
Solution: 2.6
